A short record of IC50 observed with CXCR4 (Homo sapiens, UniProt P61073) follows.
Sequence (P61073 whole entry): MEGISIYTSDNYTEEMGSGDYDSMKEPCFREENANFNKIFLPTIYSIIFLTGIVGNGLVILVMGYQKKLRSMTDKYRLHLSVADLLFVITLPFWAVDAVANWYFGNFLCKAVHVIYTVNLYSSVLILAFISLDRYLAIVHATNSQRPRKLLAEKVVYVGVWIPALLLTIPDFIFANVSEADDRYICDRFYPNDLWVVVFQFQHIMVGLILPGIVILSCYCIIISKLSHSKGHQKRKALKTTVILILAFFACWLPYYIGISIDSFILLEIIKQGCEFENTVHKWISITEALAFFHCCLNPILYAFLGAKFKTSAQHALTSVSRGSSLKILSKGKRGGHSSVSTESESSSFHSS
reported_endpoint: IC50 (nM)

INSERT INTO measurements (molecule, unit_text, recorded_result) VALUES
  ('c1ccc(CNCc2ccc(CN3CCCNCCNCCCNCC3)cc2)nc1 [AMD3465, reference compound]', 'nM', 15),
  ('Brc1cc(CN2CCCNCCNCCCNCC2)ccc1CN1CCCNCCNCCCNCC1', 'nM', 9.47);

Source: paper PMC7497443
